The entries below come with measured pIC50 values attached.
Molecular target: T1, chromodomain of CBX4 (human, UniProt O00257-1 8-65)
T1 sequence (looked up): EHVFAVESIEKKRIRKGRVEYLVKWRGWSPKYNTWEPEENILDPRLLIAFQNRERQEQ
Test: AlphaScreen or HTRF
pIC50: −log10 of the molar value. * marks the point of attachment. diethyl = not defined here; Bz = O=C(c1ccccc1)*
recorded_endpoint: pIC50

1. {4‑CO2Me‑Bz}-FALK(diethyl)S-OMe (reading uncertain) [compound 33]
5.92
2. {4‑iPr‑Bz}-FALK(diethyl)S-OMe (reading uncertain) [compound 32]
6.80
3. Bz-FALK(diethyl)S-OMe (reading uncertain) [compound 27]
5.52
4. {3‑Me‑Bz}-FALK(diethyl)S-OMe (reading uncertain) [compound 29]
5.57
5. FALKS (N-terminal para-t-butyl benzoyl cap; diethyl-lysine in lieu of Kme3; C-terminal methyl ester) [compound 1 (UNC3866)]
7.08
6. {4‑Me‑Bz}-FALK(diethyl)S-OMe (reading uncertain) [compound 30]
6.11
7. {4‑Et‑Bz}-FALK(diethyl)S-OMe (reading uncertain) [compound 31]
6.72
8. {4‑CF3‑Bz}-FALK(diethyl)S-OMe (reading uncertain) [compound 34]
6.32
9. {t‑butylbenzyl}-FALK(diethyl)S-OMe (reading uncertain) [compound 36]
5.01
10. {2‑Me‑Bz}-FALK(diethyl)S-OMe (reading uncertain) [compound 28]
4.24
